Reference for the values: patent US11813306B2

- Target System: UniProt Q8NBP7
- Sequence (Q8NBP7 153-692): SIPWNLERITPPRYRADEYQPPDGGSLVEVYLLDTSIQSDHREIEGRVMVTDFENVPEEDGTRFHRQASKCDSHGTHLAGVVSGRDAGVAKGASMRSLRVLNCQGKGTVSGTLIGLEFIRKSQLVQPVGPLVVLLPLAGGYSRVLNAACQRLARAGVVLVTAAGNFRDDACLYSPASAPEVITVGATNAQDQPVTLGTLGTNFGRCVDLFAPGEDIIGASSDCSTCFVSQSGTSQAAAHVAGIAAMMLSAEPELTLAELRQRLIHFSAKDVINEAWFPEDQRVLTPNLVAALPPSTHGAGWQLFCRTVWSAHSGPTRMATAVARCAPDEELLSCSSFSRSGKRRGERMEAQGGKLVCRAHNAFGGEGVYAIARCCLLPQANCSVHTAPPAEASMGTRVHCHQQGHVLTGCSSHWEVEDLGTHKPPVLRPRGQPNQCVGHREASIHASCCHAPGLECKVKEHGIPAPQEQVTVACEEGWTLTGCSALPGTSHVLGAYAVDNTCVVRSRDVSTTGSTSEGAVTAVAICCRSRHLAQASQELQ
- Sequence (Q8NBP7 31-152 partner limits assumed): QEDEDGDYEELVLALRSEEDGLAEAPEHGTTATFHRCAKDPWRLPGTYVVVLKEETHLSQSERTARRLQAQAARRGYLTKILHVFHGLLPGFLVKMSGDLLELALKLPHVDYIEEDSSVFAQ
- Experimental Protocol: PCSK9 ligand binding assay (TR-FRET): interference with binding of human PCSK9 to human LDLR
- Test Settings: efficacy (Amax), 100% = 1 uM unlabeled human PCSK9, 0% = DMSO
Reported Max % inhibition values for a set of compounds
State the answer as a number, implicitly in %.

Field: example entries. Status: answers known.
Mol Smiles | Target System | Unit Label | Max % inhibition
COC[C@@H]1NC(=O)[C@H](C)N(Cc2c(F)cc(Cl)cc2Oc2ccc(-c3cnc(CN(C)C)n3C)nc2)C(=O)C[C@@H](CC(F)(F)F)C(=O)N2CCC[C@@](Cc3ccc(Cl)cc3)(C2)N(C)C1=O | UniProt Q8NBP7 | % | 107.7
CCc1ccc(CN2C(=O)C[C@@H]([C@@H]3CCc4ccccc43)C(=O)N(C)C[C@@H](Cc3ccc(Cl)cc3)N(C)C(=O)[C@@H](CO)NC(=O)[C@@H]2C)c(Oc2ccc(-c3cnc(CN(C)C)n3C)cc2)c1 | UniProt Q8NBP7 | % | 92.9
COC[C@@H]1NC(=O)[C@H](C)N(Cc2ccc(Cl)cc2Oc2ccc(-c3cnc(CN(C)C)n3C)cc2)C(=O)C[C@@H](Cc2cccnc2)C(=O)N2CCC[C@@](Cc3ccc(Cl)cc3)(C2)NC1=O.Cl | UniProt Q8NBP7 | % | 109.3

Next compound, please.
**Query** Report Max % inhibition for C[C@H]1C(=O)N[C@@H](CO)C(=O)N[C@@]2(Cc3ccc(Cl)cc3)CCCN(C2)C(=O)[C@H](CC2(C)CC2)CC(=O)N1Cc1c(F)cc(Cl)cc1Oc1ccc(-c2cnc(CN(C)C)n2C)cc1 please.
**Result** 113.1
